- Tested on: Danio rerio Tg(wt1b:EGFP) embryo, pronephros
- methodNotes: glomerular separation, fold change vs DMSO control; higher = glomeruli further apart (abnormal)
- conditionContext: 25 µM; exposure: 24-48 hpf
Structures can show the parent of a compound that is named as a salt.
Returns one of label 1 or label 0; label 1 when glomerular separation is >= 1.

{"compound": "CCN(CC)CCOC(=O)c1ccc(N)cc1 [Procaine hydrochloride]", "qualitativeLabel": "label 0"}
{"compound": "CO[C@@]1(NC(=O)Cc2cccs2)C(=O)N2C(C(=O)O)=C(COC(N)=O)CS[C@@H]21 [Cefoxitin sodium salt]", "qualitativeLabel": "label 0"}
{"compound": "CCc1cccc(CC)c1NC(=O)CN(CC(=O)O)CC(=O)O", "qualitativeLabel": "label 1"}
{"compound": "Cn1c(=O)c2c(ncn2CC2OCCO2)n(C)c1=O", "qualitativeLabel": "label 1"}
{"compound": "CN1C(=O)CC(c2ccccc2)C1=O (centres undefined) [Phensuximide]", "qualitativeLabel": "label 0"}
{"compound": "C[C@H]1NC(=O)NC1=O", "qualitativeLabel": "label 0"}
{"compound": "O=C(O)c1cn(-c2ccc(F)cc2)c2cc(N3CCNCC3)c(F)cc2c1=O", "qualitativeLabel": "label 1"}
{"compound": "CC(=O)[C@H]1CC[C@H]2[C@@H]3C=CC4=CC(=O)CC[C@@]4(C)[C@@H]3CC[C@]12C", "qualitativeLabel": "label 1"}
{"compound": "C#CCN(C)Cc1ccccc1 [Pargyline hydrochloride]", "qualitativeLabel": "label 1"}
{"compound": "CCc1c(C)[nH]c2c1C(=O)C(CN1CCOCC1)CC2 (centres undefined) [Molindone hydrochloride]", "qualitativeLabel": "label 0"}

QUERY: // inclusive: glomerular separation at least 1? input: CN(Cc1cc(Br)cc(Br)c1N)C1CCCCC1 [Bromhexine hydrochloride]
RESULT: label 0

QUERY: // inclusive: glomerular separation at least 1? input: Cn1c(=O)c2c(ncn2CCO)n(C)c1=O
RESULT: label 0

QUERY: // inclusive: glomerular separation at least 1? input: O=C(Nc1ccc([N+](=O)[O-])cc1Cl)c1cc(Cl)ccc1O [Niclosamide]
RESULT: label 1

QUERY: // inclusive: glomerular separation at least 1? input: Nc1nc(O)c2ncn(CCC(CO)CO)c2n1
RESULT: label 0

QUERY: // inclusive: glomerular separation at least 1? input: COCCOC(=O)C1=C(C)NC(C)=C(C(=O)OC(C)C)C1c1cccc([N+](=O)[O-])c1 (centres undefined)
RESULT: label 1

QUERY: // inclusive: glomerular separation at least 1? input: Cn1c([N+](=O)[O-])cnc1COC(N)=O
RESULT: label 0

QUERY: // inclusive: glomerular separation at least 1? input: C[N+]1(CCCCC[N+]2(C)CCCC2)CCCC1 [Pentolinium bitartrate]
RESULT: label 1

QUERY: // inclusive: glomerular separation at least 1? input: Cc1ccc(S(=O)(=O)NC(=O)NN2CCCCCC2)cc1 [Tolazamide]
RESULT: label 0

====

- Tested on: Danio rerio Tg(wt1b:EGFP) embryo, pronephros
- methodNotes: pronephric angle neck segment to proximal convoluted tubule (mean of left and right), fold change vs DMSO control; higher = larger pronephric angle
- conditionContext: 25 µM; exposure: 24-48 hpf
Where a name gives a salt, the structure may show the parent alone.
Listing of entries alongside the reported pronephric angle neck segment.
Number, no unit, nothing else.

{"compound": "COc1ccc(CN(CCN(C)C)c2ccccn2)cc1 [Pyrilamine maleate]", "pronephric angle neck segment": 1.03}
{"compound": "CCOC(=O)C1=C(COCCN)NC(C)=C(C(=O)OC)C1c1ccccc1Cl (centres undefined)", "pronephric angle neck segment": 0.983}
{"compound": "COc1ccc(CC(C)NCC(O)c2ccc(O)c(NC=O)c2)cc1 (centres undefined) [Formoterol fumarate]", "pronephric angle neck segment": 1.05}

QUERY: Check the records and state pronephric angle neck segment for COC1=CC(=O)C[C@@H](C)[C@]12Oc1c(Cl)c(OC)cc(OC)c1C2=O
RESULT: 0.947

QUERY: Check the records and state pronephric angle neck segment for C1CCC(C(CC2CCCCN2)C2CCCCC2)CC1 (centres undefined) [Perhexiline maleate]
RESULT: 1.01

QUERY: Check the records and state pronephric angle neck segment for Nc1cc(C(Cl)=C(Cl)Cl)c(S(N)(=O)=O)cc1S(N)(=O)=O
RESULT: 0.935

QUERY: Check the records and state pronephric angle neck segment for CCOc1nc2cccc(C(=O)O)c2n1Cc1ccc(-c2ccccc2-c2nnn[nH]2)cc1
RESULT: 1.01

QUERY: Check the records and state pronephric angle neck segment for CCOC(=O)C1=C[C@]2(CC)CCCN3CCc4c(n1c1ccccc41)[C@@H]32
RESULT: 1.05

QUERY: Check the records and state pronephric angle neck segment for CCOC(=O)n1ccn(C)c1=S
RESULT: 1.05

Each recorded value in this set is attributed to the supplement of paper PMC7366291.
